pIC50: −log10 of the molar value.
Record: compiled pIC50 on Cytochrome P450 2C19 (Homo sapiens, UniProt P33261) from multiple reports.
assay endpoint: pIC50

INSERT INTO measurements (compound, assay_target, sign_qualifier, value_measured) VALUES
  ('C[C@@H](c1ccccc1-c1ccc(F)cc1)n1cncc1C(=O)N1CCC2NC(=O)CO[C@@H]2C1 (mixture of isomers)', 'Cytochrome P450 2C19 (Homo sapiens, UniProt P33261)', '<', 5.00),
  ('Cc1cc(Nc2ncc(Cl)c(Nc3cn(C)nc3S(=O)(=O)C(C)C)n2)c(OC2CC2)cc1C1CCC(N2CCN(C)CC2)CC1 (stereo not shown)', 'Cytochrome P450 2C19 (Homo sapiens, UniProt P33261)', '<', 5.00),
  ('C[C@@H](c1ccc(-c2nccs2)cc1)N1CC[C@](CC(C)(C)O)(c2ccccc2)OC1=O', 'Cytochrome P450 2C19 (Homo sapiens, UniProt P33261)', '=', 6.00),
  ('C[C@@H](c1ccc(-c2cnccn2)cc1)N1CC[C@](CC(C)(C)O)(c2ccccc2)OC1=O', 'Cytochrome P450 2C19 (Homo sapiens, UniProt P33261)', '=', 5.52),
  ('COc1cc2c(NC3CCOCC3)nc(N3CCCC3)nc2cc1OCCCN1CCCC1', 'Cytochrome P450 2C19 (Homo sapiens, UniProt P33261)', '<', 4.00),
  ('COc1cnc(C(=O)Nc2ccc(F)c([C@@]3(C)N=C(N)S[C@H](C)[C@@H]3F)c2)cn1', 'Cytochrome P450 2C19 (Homo sapiens, UniProt P33261)', '≤', 4.70),
  ('COc1ccc2c3c([nH]c2c1)[C@H](CC(C)C)N1C(=O)[C@H](C)NC(=O)[C@@H]1C3', 'Cytochrome P450 2C19 (Homo sapiens, UniProt P33261)', '=', 4.73);
